Can you tell me apparent KD of MS2 coat protein for the items I'm about to list?
Tested on: MS2 coat protein
PROCEDURE SUMMARY: apparent KD of MS2 coat protein; designed switch direction (-1 OFF switch, 1 ON switch): -1; higher = weaker reporter binding
CONDITION DETAILS: Eterna round: R95; input ligand: none
Report the figure in nM without appending any unit label.

Query block: Determine its reported apparent KD of MS2 coat protein: CUGAGCAGACGGAGAUCCAACAUGAGGAUCACCCAUGUCUCAUAAGCUUUUUGUUCAUCUUAUUGUACCUUGGUGCU [JL ViennaUCT Edcesobi mod 4] (puzzle: Sensor v3, turn-off variant 1)
Result block: 252

Query block: Determine its reported apparent KD of MS2 coat protein: AAGUACCGUCACGAUAGUGAUGGUACAACAAGCAAAUGUACAUGAGGAUCACCCAUGUCCUCUUUUGCUCGUCUUAU [Sensor 3 - 94] (puzzle: Sensor v3, turn-off variant 2)
Result block: 53.8

Query block: Determine its reported apparent KD of MS2 coat protein: UUUUUAGUGCUUUUUAAGUACAUGAGGAUCACCCAUGUACUUGUCUGGUGGUCCGGACAAGCUUUUUGCUCGUCUAG [Sensor v3 - turn-off variant 1 - 3] (puzzle: Sensor v3, turn-off variant 1)
Result block: 36.4

Query block: Determine its reported apparent KD of MS2 coat protein: GCGAAAGCAAGCAAGUGAAACAUGAGGAUCACCCAUGUCCUCAUUUGCUCGUCUUAUAAAAGCUAUCGAAAGAUAGC [Sensor 3, v1 - 1] (puzzle: Sensor v3, turn-off variant 1)
Result block: 13.5

Query block: Determine its reported apparent KD of MS2 coat protein: CUCCUCAUGGCGCCUAAACACAUGAGGAUCACCCAUGUACAGGCUUUUCGCCGUCUUAUAAUAAAACCGAGGAUGCG [Soislebice] (puzzle: Sensor v3, turn-off variant 1)
Result block: 47.8

Query block: Determine its reported apparent KD of MS2 coat protein: AAGAAACAUGAGGAUCACCCAUGUGAGGAUAUGAGCAAGAAAAGAAAAGAAAGAAGACUCAGAAGGCACAAAGG [salish99-ex1_r3_072] (puzzle: Exclusion 1)
Result block: 106

Query block: Determine its reported apparent KD of MS2 coat protein: AGUGCUGACACGUUGGUGUUAGUACCAUAAGCUUGUGAUACAUGAGGAUCACCCAUGUCCUCAUAAGCUCGUCUUAU [salish99_TOv2_r2_097] (puzzle: Sensor v3, turn-off variant 2)
Result block: 26.8

Query block: Determine its reported apparent KD of MS2 coat protein: AGUACUAACACGAAAGUGUUAGUACAAUAAGCUAGUGGAACAUGAGGAUCACCCAUGUCCUCAUUAGCUCGUCUUAA [Mat - Sensor v3 - Turn-off var 2 - D34] (puzzle: Sensor v3, turn-off variant 2)
Result block: 15.5

Query block: Determine its reported apparent KD of MS2 coat protein: GAUUAUGCGAGCUUUAGGGACAUGAGGAUCACCCAUGUUCGUCUUAUUGGUCUGAAUGCACUGACAUACCUAAAUCU [JMF 76] (puzzle: Sensor v3, turn-off variant 1)
Result block: 17.5

Query block: Determine its reported apparent KD of MS2 coat protein: AAGAAACAUGAGGAUCACCCAUGUGAGGAUAUGAAAAAGAAAAGAAAAGAAAGAAGGGUCAGAAGGCACAAAGG [salish99-ex1_r3_028] (puzzle: Exclusion 1)
Result block: 35.5
